# method: growth suppression of yeast trafficking mutant, preliminary HTS, modulators of trafficking downstream of Golgi apparatus project, 1536-format plate, OD 615 nm (AID 637); further: test concentration not given here
# test.conditions: yeast transport mutant growth, absorbance 615 nm, 18 h; stronger effect = higher value
measured.metric: inhibition (%)
Reply with just the number (in %).

Lab note: measured inhibition of N/C(=N/O)c1nc(N2CCCC2)nc(N(c2ccccc2)c2ccccc2)n1 was 3.17

Lab note: measured inhibition of OCCNCCCCOc1ccccc1F was -8.17

Lab note: measured inhibition of COc1ccc(-n2c(SCc3ccc(C#N)cc3)nnc2-c2ccccn2)cc1 was -5.56

Lab note: measured inhibition of O=C(O)c1ccc2c(c1)N(Cc1ccccc1F)C(=O)c1ccccc1S2=O (stereo unspecified) was 4.43

Lab note: measured inhibition of Cc1cccc(-n2c(O)c(C=Nc3ccccc3N)c(=O)[nH]c2=O)c1 was -0.16

Lab note: measured inhibition of COc1ccc(NC(=O)CSc2nnc(-c3ccccc3C)n2C)cc1 was -5.17

Lab note: measured inhibition of CCOc1nc2ccccc2nc1NS(=O)(=O)c1ccccc1 was 3.82

Lab note: measured inhibition of CC1(C)NC(=O)N(CC(O)CN(Cc2ccccc2)Cc2ccccc2)C1=O (stereo unspecified) was -10.2

Lab note: measured inhibition of O=C1CN(C(=O)COC(=O)c2ccccc2NC(=O)c2ccco2)c2ccccc2N1 was -0.49

Lab note: measured inhibition of O=c1c2c3c(sc2n2cnnc2n1CCc1ccccc1)CCCC3 was 6.45

Lab note: measured inhibition of Cc1ccc(-c2cc(C(=O)Nc3cc(C)ccc3C)[nH]n2)c(O)c1 was -1.9
